Molecular target: Alpha-2C adrenergic receptor (Homo sapiens); further: assay procedure not described here
Sequence (P18825 whole entry): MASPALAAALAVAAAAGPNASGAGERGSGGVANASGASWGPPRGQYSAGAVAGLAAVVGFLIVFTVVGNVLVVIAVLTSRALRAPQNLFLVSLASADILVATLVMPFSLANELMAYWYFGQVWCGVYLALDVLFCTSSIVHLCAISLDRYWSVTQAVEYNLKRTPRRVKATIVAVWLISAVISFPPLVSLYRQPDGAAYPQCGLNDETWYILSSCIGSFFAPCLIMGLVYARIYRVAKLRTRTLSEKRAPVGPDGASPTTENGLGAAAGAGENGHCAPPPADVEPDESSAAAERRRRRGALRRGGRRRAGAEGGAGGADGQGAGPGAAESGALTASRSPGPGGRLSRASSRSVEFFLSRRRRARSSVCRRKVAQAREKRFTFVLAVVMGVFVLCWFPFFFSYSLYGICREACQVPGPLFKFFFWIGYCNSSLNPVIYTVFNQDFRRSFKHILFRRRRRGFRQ
Assay type: functional
Consider the following compounds; for each one, report its AC50.

{"columns": ["compound", "attribute_measured", "result"],
 "data": [
  ["COc1cc2c(cc1OC)C(CCc1ccc(Cl)cc1)N(C)CC2 (stereo not drawn) [METHOPHOLINE]", "AC50", "> 10 µM"],
  ["CC[C@@H]([C@H](C)O)n1ncn(-c2ccc(N3CCN(c4ccc(OC[C@@H]5CO[C@@](Cn6cncn6)(c6ccc(F)cc6F)C5)cc4)CC3)cc2)c1=O [POSACONAZOLE]", "AC50", "> 30 µM"],
  ["CN(C)CCCNc1c2ccccc2nc2cccc([N+](=O)[O-])c12 [NITRACRINE]", "AC50", "5.2 µM"],
  ["COc1cc2nccc(Oc3ccc(NC(=O)C4(C(=O)Nc5ccc(F)cc5)CC4)cc3)c2cc1OC [CABOZANTINIB]", "AC50", "26 µM"],
  ["CCCCCCCCCCCCCCCCCCCCCC(=O)Nc1ccn([C@@H]2O[C@H](CO)[C@@H](O)[C@@H]2O)c(=O)n1 [ENOCITABINE]", "AC50", "> 30 µM"]
]}

# per-item lookup of AC50; items listed below
1. Cc1ncc2n1-c1ccc(Cl)cc1C(c1ccccc1F)=NC2 [MIDAZOLAM]
2. OCc1cc(C(O)CNCCCCCCOCCCCc2ccccc2)ccc1O (stereo not drawn) [SALMETEROL]

1. > 10 µM
2. > 10 µM

Provide value of AC50 for this record tested with Alpha-2C adrenergic receptor (Homo sapiens): Cn1cnc2c(F)c(Nc3ccc(Br)cc3Cl)c(C(=O)NOCCO)cc21 [SELUMETINIB]
> 10 µM

###

Consider the following compounds; for each one, report its AC50.
molecular target: Kappa-type opioid receptor (Homo sapiens, UniProt P41145); further: assay procedure not described here
Sequence (P41145 whole entry): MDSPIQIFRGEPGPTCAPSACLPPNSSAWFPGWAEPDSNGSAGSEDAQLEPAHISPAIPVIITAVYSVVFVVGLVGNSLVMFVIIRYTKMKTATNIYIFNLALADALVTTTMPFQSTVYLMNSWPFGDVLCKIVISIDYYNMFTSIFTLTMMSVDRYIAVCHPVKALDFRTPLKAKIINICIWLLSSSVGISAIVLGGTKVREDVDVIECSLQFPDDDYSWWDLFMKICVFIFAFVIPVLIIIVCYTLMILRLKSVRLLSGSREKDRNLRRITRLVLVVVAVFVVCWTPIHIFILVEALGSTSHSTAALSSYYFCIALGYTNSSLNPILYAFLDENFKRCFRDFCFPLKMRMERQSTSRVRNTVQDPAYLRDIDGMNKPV

Some compounds with known AC50 results, for comparison:
{"columns": ["compound", "measured_target", "attribute_measured", "result"],
 "data": [
  ["C=C[C@@]1(C)CC(=O)[C@]2(O)[C@@]3(C)[C@@H](O)CCC(C)(C)[C@@H]3[C@H](O)[C@H](OC(C)=O)[C@@]2(C)O1 [COLFORSIN]", "Kappa-type opioid receptor (Homo sapiens, UniProt P41145)", "AC50", "> 30 µM"],
  ["CN1CCC(=C2c3ccccc3CCc3cccnc32)CC1 [AZATADINE]", "Kappa-type opioid receptor (Homo sapiens, UniProt P41145)", "AC50", "9.38 µM"],
  ["CC(C)Cc1ccc(C(C)C(=O)O)cc1 (stereo not drawn) [IBUPROFEN]", "Kappa-type opioid receptor (Homo sapiens, UniProt P41145)", "AC50", "> 10 µM"]
]}

# per-item lookup of AC50; items listed below
1. CC(C)NCC(O)c1ccc(O)c(O)c1 (stereo not drawn) [ISOPROTERENOL]
2. CCC(C)C(CC)C(N)=O (stereo not drawn) [VALNOCTAMIDE]
3. CC(CCc1ccc(O)cc1)NCCc1ccc(O)c(O)c1 (stereo not drawn) [DOBUTAMINE]
4. COCC1=C(C(=O)O)N2C(=O)[C@@H](NC(=O)/C(=N\OC)c3csc(N)n3)[C@H]2SC1 [CEFPODOXIME]
5. CCCCC1C(=O)N(c2ccccc2)N(c2ccccc2)C1=O [PHENYLBUTAZONE]

1: > 10 µM; 2: > 30 µM; 3: 6.86 µM; 4: > 30 µM; 5: > 10 µM

###

Target: Muscarinic acetylcholine receptor M2 (Homo sapiens, UniProt P08172); further: assay procedure not described here
Sequence (P08172 whole entry): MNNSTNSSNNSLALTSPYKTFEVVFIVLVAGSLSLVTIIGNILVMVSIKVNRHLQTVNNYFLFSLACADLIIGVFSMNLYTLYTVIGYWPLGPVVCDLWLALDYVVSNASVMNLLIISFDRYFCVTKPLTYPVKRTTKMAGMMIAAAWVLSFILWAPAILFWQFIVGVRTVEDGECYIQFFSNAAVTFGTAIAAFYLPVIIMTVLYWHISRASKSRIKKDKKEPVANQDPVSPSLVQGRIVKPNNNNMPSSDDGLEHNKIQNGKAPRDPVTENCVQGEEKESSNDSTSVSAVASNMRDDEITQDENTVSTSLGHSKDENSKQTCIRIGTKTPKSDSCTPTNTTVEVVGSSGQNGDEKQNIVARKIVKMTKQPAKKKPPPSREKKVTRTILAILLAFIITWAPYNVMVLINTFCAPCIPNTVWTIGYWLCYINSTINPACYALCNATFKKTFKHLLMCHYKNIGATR
Format: functional, cell-based
attribute_measured: AC50

{"columns": ["compound", "attribute_measured", "result"],
 "data": [
  ["COc1ccc2nc3cc(Cl)ccc3c(Nc3cc(CN4CCCC4)c(O)c(CN4CCCC4)c3)c2n1", "AC50", "15 µM"],
  ["CCCC(CCC)C(=O)O", "AC50", "> 10 µM"],
  ["Nc1cc(-c2ccncc2)c[nH]c1=O", "AC50", "> 10 µM"],
  ["Oc1ccc2c(c1)[C@@]13CCCC[C@@]1(O)[C@@H](C2)N(CC1CCC1)CC3", "AC50", "> 30 µM"],
  ["CC(C)COCC(CN(Cc1ccccc1)c1ccccc1)N1CCCC1 (stereo not drawn)", "AC50", "> 30 µM"]
]}

# per-item lookup of AC50; items listed below
1. O=C1C(CC[S+]([O-])c2ccccc2)C(=O)N(c2ccccc2)N1c1ccccc1 (stereo not drawn)
2. CC(=O)[C@@]1(O)CC[C@H]2[C@@H]3C=C(Cl)C4=CC(=O)[C@@H]5C[C@@H]5[C@]4(C)[C@H]3CC[C@@]21C

["> 10 µM", "> 10 µM"]

###

Molecular target: Progesterone receptor (Homo sapiens); further: assay procedure not described here
Sequence (P06401 whole entry): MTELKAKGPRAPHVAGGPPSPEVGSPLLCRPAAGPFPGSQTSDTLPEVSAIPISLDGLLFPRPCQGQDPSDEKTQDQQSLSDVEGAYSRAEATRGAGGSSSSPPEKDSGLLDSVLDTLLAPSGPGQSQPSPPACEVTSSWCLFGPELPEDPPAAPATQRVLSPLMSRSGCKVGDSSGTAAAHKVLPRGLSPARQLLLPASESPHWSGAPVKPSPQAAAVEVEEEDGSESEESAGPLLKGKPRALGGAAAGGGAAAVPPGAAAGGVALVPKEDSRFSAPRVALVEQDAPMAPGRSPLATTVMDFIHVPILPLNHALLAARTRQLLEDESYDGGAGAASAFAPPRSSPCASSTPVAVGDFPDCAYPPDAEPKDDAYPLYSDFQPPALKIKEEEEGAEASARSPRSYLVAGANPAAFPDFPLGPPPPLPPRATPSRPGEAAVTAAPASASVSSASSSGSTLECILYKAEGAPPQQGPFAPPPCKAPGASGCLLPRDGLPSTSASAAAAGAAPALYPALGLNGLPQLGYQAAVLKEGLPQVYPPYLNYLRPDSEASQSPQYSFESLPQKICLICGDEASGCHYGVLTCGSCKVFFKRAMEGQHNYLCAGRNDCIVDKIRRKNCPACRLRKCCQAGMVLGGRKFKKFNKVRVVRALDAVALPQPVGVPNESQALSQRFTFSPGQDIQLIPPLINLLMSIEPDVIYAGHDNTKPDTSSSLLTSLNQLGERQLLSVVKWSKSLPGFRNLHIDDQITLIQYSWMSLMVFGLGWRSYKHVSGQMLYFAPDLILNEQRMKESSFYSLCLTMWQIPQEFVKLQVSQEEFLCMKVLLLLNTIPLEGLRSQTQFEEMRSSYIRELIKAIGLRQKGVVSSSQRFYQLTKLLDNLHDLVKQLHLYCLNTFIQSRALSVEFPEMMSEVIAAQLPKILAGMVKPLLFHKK
Format: functional
Consider the following compounds; for each one, report its AC50.

{"columns": ["compound", "measured_target", "AC50"],
 "data": [
  ["NC1CCN(c2nc3c(cc2F)c(=O)c(C(=O)O)cn3-c2ccc(F)cc2F)C1 (stereo not given)", "Progesterone receptor (Homo sapiens)", "> 30 µM"],
  ["CN1C(C(=O)Nc2ccccn2)=C(O)c2ccccc2S1(=O)=O", "Progesterone receptor (Homo sapiens)", "> 10 µM"],
  ["CC(=O)SC[C@@H](C)C(=O)N1CCC[C@H]1C(=O)N[C@@H](Cc1ccccc1)C(=O)O", "Progesterone receptor (Homo sapiens)", "> 30 µM"],
  ["CCN(CC)CCNC(=O)c1c(C)[nH]c(/C=C2\\C(=O)Nc3ccc(F)cc32)c1C", "Progesterone receptor (Homo sapiens)", "1.7 µM"]
]}

// returns reported AC50 for input CCN1CCN(Cc2ccc(Nc3ncc(F)c(-c4cc(F)c5nc(C)n(C(C)C)c5c4)n3)nc2)CC1
> 30 µM

Cited source for all entries: ChEMBL document CHEMBL5291721
